# System: CYP9BU2
# EXPERIMENT DESCRIPTION: Insecticide bioassay on transgenic flies expressing CYP9BU2
# Type: in vivo, Drosophila melanogaster
# TEST CONDITIONS: transgenic line expressing CYP9BU2, Drosophila melanogaster, in vivo; CYP9BU2 strain
Reported LC50 by item:

COMPOUND: N#C/N=C1\SCCN1Cc1ccc(Cl)nc1 [thiacloprid]
LC50, µg/mL: 17.5
//
COMPOUND: O=[N+]([O-])NC1=NCCN1Cc1ccc(Cl)nc1 [imidacloprid]
LC50, µg/mL: 135

---

# System: CYP9BU1
# EXPERIMENT DESCRIPTION: Insecticide bioassay on transgenic flies expressing CYP9BU1
# Assay type: in vivo, Drosophila melanogaster
# TEST CONDITIONS: transgenic line expressing CYP9BU1, Drosophila melanogaster, in vivo; CYP9BU1 strain
# Protocol: CYP9BU1 and CYP9BU2 were codon optimised for D. melanogaster expression and cloned into the pUASTattB plasmid (GenBank: EF362409.1). These constructs were used to create transgenic fly lines, which were then tested in insecticide bioassays against imidacloprid and thiacloprid, as described previously.
Reported LC50 by item:

STRUCTURE AS SMILES: O=[N+]([O-])NC1=NCCN1Cc1ccc(Cl)nc1
LC50 (µg/mL): 85.9
--
STRUCTURE AS SMILES: N#C/N=C1\SCCN1Cc1ccc(Cl)nc1
LC50 (µg/mL): 65.7
